- PROTOCOL_NOTES: ATG_AP_2_CIS: Attagene CIS-FACTORIAL HepG2 Assay for human Activator Protein 2 (AP-2) (AID 2282932)
- RUN_PARAMETERS: HepG2 AP-2 cis-reporter, Attagene transcription factor profiling; actives raise or lower the signal
Activity calls are given as the source filed them. How the source made its calls: active means hit-call score of the fitted dose curve at least 0.9, where 1 is the maximum; inactive means score below 0.9.
One label from this list, please: active, inactive

Q: Recorded test call requested for `c1ccc2occc2c1`
Ans: inactive

Q: Recorded test call requested for `CCOCCOCCO`
Ans: inactive

Q: Recorded test call requested for `CC(C)(O)c1ccc(CNC(=O)c2cccnc2Oc2ccc(F)cc2)cc1`
Ans: inactive

Q: Recorded test call requested for `O=C(NS(=O)(=O)/C=C/c1cccs1)c1ccc(F)cc1Br`
Ans: inactive

Q: Recorded test call requested for `Cc1occc(=O)c1O`
Ans: inactive

Q: Recorded test call requested for `CC(C)c1cccc(C(C)C)c1`
Ans: inactive

Q: Recorded test call requested for `CCc1cc(C2=C(C(=O)O)N(c3ccccc3C(F)(F)F)S(=O)(=O)c3ccccc32)cc2c1OCO2`
Ans: inactive

Q: Recorded test call requested for `Nc1nc(Cl)nc2c1ncn2[C@H]1C[C@H](O)[C@@H](CO)O1`
Ans: inactive

Q: Recorded test call requested for `C=CCc1ccc(OC)c(OC)c1`
Ans: inactive

Q: Recorded test call requested for `Cc1cn([C@H]2C=C[C@@H](CO)O2)c(=O)[nH]c1=O`
Ans: inactive

Q: Recorded test call requested for `CCCCCCC(C=O)=Cc1ccccc1`
Ans: inactive

Q: Recorded test call requested for `O=[Si]=O`
Ans: inactive

Q: Recorded test call requested for `CC1=C(C)S(=O)(=O)CCS1(=O)=O`
Ans: inactive

Q: Recorded test call requested for `O=C1O[C@H]([C@H](O)CO)C(O)=C1O`
Ans: inactive

Q: Recorded test call requested for `Nc1nc(=S)c2[nH]cnc2[nH]1`
Ans: inactive

Q: Recorded test call requested for `C=CCCCCCCCCCCCC`
Ans: inactive

Q: Recorded test call requested for `NC(=Nc1ccccc1)Nc1ccccc1`
Ans: inactive

Q: Recorded test call requested for `COC(=O)CCCC(=O)OC`
Ans: inactive

Q: Recorded test call requested for `CC(N)=O`
Ans: inactive

Q: Recorded test call requested for CCC(C)N(C)C(=O)c1cc2ccccc2c(-c2ccccc2Cl)n1 (centres undefined)
Ans: inactive

Q: Recorded test call requested for `CCCC[C@H]1CN(CC2CCOCC2)C(=O)OC12CCN(C1(C)CCN(C(=O)c3c(C)ncnc3C)CC1)CC2`
Ans: inactive

Q: Recorded test call requested for `Cc1ccc(C(C)(C)C)c(O)c1`
Ans: inactive

Q: Recorded test call requested for `CC(=O)OCC(COC(C)=O)OC(C)=O`
Ans: inactive

Q: Recorded test call requested for `COc1ccc(C(=O)Nc2nc3ccccc3c(NCc3ccccc3)c2C#N)cc1`
Ans: inactive

Q: Recorded test call requested for `NC1CCCCC1`
Ans: inactive

Q: Recorded test call requested for `Oc1ccc(O)cc1`
Ans: active

Q: Recorded test call requested for C#CC(O)C(CC)CCCC (centres undefined)
Ans: active

Q: Recorded test call requested for `COc1ccc(OC(F)(F)F)cc1CN[C@H]1CCCN[C@H]1c1ccccc1`
Ans: inactive

Q: Recorded test call requested for `Cc1cc(Cc2ccc(N)c(C)c2)ccc1N`
Ans: inactive

Q: Recorded test call requested for `O=C1c2c(O)cccc2Cc2cccc(O)c21`
Ans: inactive

Q: Recorded test call requested for `CN(C)CCCN1c2ccccc2Sc2ccc(Cl)cc21`
Ans: inactive

Q: Recorded test call requested for `O=C(O)c1[nH]n(-c2ccc(S(=O)(=O)O)cc2)c(=O)c1N=Nc1ccc(S(=O)(=O)O)cc1`
Ans: inactive

Q: Recorded test call requested for `CN(C)CCCN(C)CCCN(C)C`
Ans: inactive

Q: Recorded test call requested for `O=C(O)CN(CC(=O)O)CC(=O)O`
Ans: inactive

Q: Recorded test call requested for `COC(=O)[C@H]1[C@H]2C[C@@H]3c4[nH]c5cc(OC)ccc5c4CCN3C[C@H]2C[C@@H](OC(=O)c2cc(OC)c(OC)c(OC)c2)[C@@H]1OC`
Ans: inactive

Q: Recorded test call requested for CCCCCCC(CCCCCCCCCCC(=O)OCC(COC(C)=O)OC(C)=O)OC(C)=O (centres undefined)
Ans: inactive

Q: Recorded test call requested for CCCCC(CC)CO (centres undefined)
Ans: inactive

Q: Recorded test call requested for `CCCC(=O)O`
Ans: inactive

Q: Recorded test call requested for CCCCC(CC)COP(=O)(OCC(CC)CCCC)OCC(CC)CCCC (centres undefined)
Ans: inactive

Q: Recorded test call requested for `CC(C)(C)c1ccccc1`
Ans: inactive

Q: Recorded test call requested for `O=C(O)c1cccnc1`
Ans: inactive

Q: Recorded test call requested for `CC(C)c1cccc(C(C)C)c1NC(=O)NS(=O)(=O)c1cc(C(C)(C)O)co1`
Ans: inactive

Q: Recorded test call requested for `CCCCOC(=O)CCCCC(=O)OCCCC`
Ans: inactive

Q: Recorded test call requested for `COC(=O)CCC(=O)OC`
Ans: inactive

Q: Recorded test call requested for `CO[C@@H]1COCC[C@@H]1N[C@@H]1CC[C@@](C(=O)N2CCc3ncc(C(F)(F)F)cc3C2)(C(C)C)C1`
Ans: inactive

Q: Recorded test call requested for `O=C(Oc1ccccc1)c1cccc(C(=O)Oc2ccccc2)c1`
Ans: inactive

Q: Recorded test call requested for `O=NO`
Ans: inactive

Q: Recorded test call requested for `CCCCCCCCCC[N+](C)(C)[O-]`
Ans: inactive

Q: Recorded test call requested for `Cc1cc(SC2=C(O)C[C@@](CCc3ccc(N)cc3)(C(C)C)OC2=O)c(C(C)(C)C)cc1CO`
Ans: inactive

---

- PROTOCOL_NOTES: APR_HepG2_CellCycleArrest_24hr: Apredica 24-hour HepG2 Assay for Cell Cycle Arrest (AID 2282905);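 further: cell cycle arrest scored as ratio of 2N to 4N nuclear DNA content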
- RUN_PARAMETERS: imaging, actives raise or lower the signal
Active and inactive are the calls of the source. The calls were made as follows: active = hit-call score of the fitted dose curve at least 0.9, where 1 is the maximum; inactive = score below 0.9.
One label from this list, please: 1 (active), 0 (inactive)

Q: Recorded test call requested for `CCCCCCCCCCCCCCOS(=O)(=O)O`
Ans: 1

Q: Recorded test call requested for `CCCC(=O)O`
Ans: 0

Q: Recorded test call requested for `OCC(O)CO`
Ans: 0

Q: Recorded test call requested for `Nc1nc(=S)c2[nH]cnc2[nH]1`
Ans: 0

Q: Recorded test call requested for `O=C1NC(=O)C(c2ccccc2)(c2ccccc2)N1`
Ans: 0

Q: Recorded test call requested for `CCCC[C@H]1CN(CC2CCOCC2)C(=O)OC12CCN(C1(C)CCN(C(=O)c3c(C)ncnc3C)CC1)CC2`
Ans: 0

Q: Recorded test call requested for `CCc1cc(C2=C(C(=O)O)N(c3ccccc3C(F)(F)F)S(=O)(=O)c3ccccc32)cc2c1OCO2`
Ans: 0

Q: Recorded test call requested for `NC(=Nc1ccccc1)Nc1ccccc1`
Ans: 1

Q: Recorded test call requested for `NC1CCCCC1`
Ans: 0

Q: Recorded test call requested for `O=NO`
Ans: 0

Q: Recorded test call requested for `O=C(NS(=O)(=O)/C=C/c1cccs1)c1ccc(F)cc1Br`
Ans: 0

Q: Recorded test call requested for `COC(=O)CCC(=O)OC`
Ans: 0

Q: Recorded test call requested for `CC(C)COC(=O)CCCCC(=O)OCC(C)C`
Ans: 0

Q: Recorded test call requested for `CCN(CC)CCOc1ccc(C(=C(Cl)c2ccccc2)c2ccccc2)cc1`
Ans: 0

---

- PROTOCOL_NOTES: CCTE_Shafer_MEA_acute_burst_duration_mean: CCTE's Neural Acute Assay for Mean Burst Duration, Shafer Lab (AID 2284014);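 further: hits are decreases in mean burst duration relative to DMSO controls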
Calls of active or inactive are those of the source. How the source made its calls: active means hit-call score of the fitted dose curve at least 0.9, where 1 is the maximum; inactive means score below 0.9.
One label from this list, please: active, inactive

Q: Recorded test call requested for `C/C=C/c1ccc(OC)cc1`
Ans: inactive

Q: Recorded test call requested for `COc1ccc(OC(F)(F)F)cc1CN[C@H]1CCCN[C@H]1c1ccccc1`
Ans: inactive

Q: Recorded test call requested for `Cc1ccc(C(C)(C)C)c(O)c1`
Ans: inactive

Q: Recorded test call requested for `CC(N)=O`
Ans: inactive

Q: Recorded test call requested for `CC(C)COC(=O)CCCCC(=O)OCC(C)C`
Ans: inactive

Q: Recorded test call requested for `Cc1cc(Cc2ccc(N)c(C)c2)ccc1N`
Ans: inactive

Q: Recorded test call requested for `OCC(CO)n1cnc(-c2ccc(F)cc2)c1-c1ccnc(Oc2ccccc2)n1`
Ans: inactive

Q: Recorded test call requested for `CCN(CC)CCOc1ccc(C(=C(Cl)c2ccccc2)c2ccccc2)cc1`
Ans: inactive

Q: Recorded test call requested for `CN(C)C(=O)NC1(c2ccccc2)CCN(CC[C@@]2(c3ccc(F)c(F)c3)CN(C(=O)c3ccccc3)CCO2)CC1`
Ans: inactive

Q: Recorded test call requested for `O=C(N[C@@H](c1ccccc1)[C@@H]1CCCCN1)c1cccc(C(F)(F)F)c1Cl`
Ans: inactive

Q: Recorded test call requested for `Cc1cc(SC2=C(O)C[C@@](CCc3ccc(N)cc3)(C(C)C)OC2=O)c(C(C)(C)C)cc1CO`
Ans: inactive

Q: Recorded test call requested for `Cc1ccc(-c2cc(C(F)(F)F)nn2-c2ccc(S(N)(=O)=O)cc2)cc1`
Ans: inactive

Q: Recorded test call requested for Cc1c(C)c2c(c(C)c1O)CCC(C)(COc1ccc(CC3SC(=O)NC3=O)cc1)O2 (stereo not drawn)
Ans: inactive

Q: Recorded test call requested for CCCCC(CC)COP(=O)(OCC(CC)CCCC)OCC(CC)CCCC (stereo not drawn)
Ans: inactive

Q: Recorded test call requested for `CCCC(=O)O`
Ans: inactive

Q: Recorded test call requested for `COC(=O)[C@H]1[C@H]2C[C@@H]3c4[nH]c5cc(OC)ccc5c4CCN3C[C@H]2C[C@@H](OC(=O)c2cc(OC)c(OC)c(OC)c2)[C@@H]1OC`
Ans: inactive

Q: Recorded test call requested for `CN(C)C(=O)NC1(c2ccccc2)CCN(CCC[C@]2(c3ccc(Cl)c(Cl)c3)CCCN(C(=O)c3ccccc3)C2)CC1`
Ans: active

Q: Recorded test call requested for `CC1=C(C)S(=O)(=O)CCS1(=O)=O`
Ans: inactive
